- run.description: Pharmacokinetic study of 153 (and metabolite endothal) in SD rats, iv and po; plasma, liver, brain
- Format: in vivo
- condition.parameters: female, Sprague-Dawley, rat, in vivo, po, 1.25 mg/kg, PO per title, 1.25 mg/kg, 2 hr, Rat 2; read-out: 153 liver concentration
- Protocol: The blood, liver and brain tissue samples were collected at predetermined times from rats. […] Compound were diluted shortly before use in 4% sodium bicarbonate for sterile injection (this is the standard pediatric solution of NaHCO3 with a pH of about 8.5). Compound 153 was freshly prepared by diluting the drugs shortly before use in 4% sodium bicarbonate for sterile injection (this is the standard pediatric solution of NaHCO3 with a pH of about 8.5). […]

{"columns": ["molecule", "concentration at 2 h, ng/g"],
 "data": [
  ["CCCOC(=O)C1C2CCC(O2)C1C(=O)N1CCN(C)CC1 (stereo not shown) [Compound 153]", 41.2]
]}

---

- run.description: Pharmacokinetic study of 100 (and metabolite endothal) in SD rats, iv; plasma, liver, brain
- condition.parameters: female, SD, rat, in vivo, iv, 0.5 mg/kg, Endothal liver concentration, 100 iv 0.5 mg/kg, SD rats, 10 hr, mean

{"columns": ["compound", "concentration at 10 h, ng/g"],
 "data": [
  ["O=C(O)C1C2CCC(O2)C1C(=O)O (stereo not shown) [Endothal]", 124]
]}

---

- run.description: Pharmacokinetic study of 153 (and metabolite endothal) in SD rats, iv and po; plasma, liver, brain
- Assay type: in vivo
- condition.parameters: female, SD, rat, in vivo, iv, 1.25 mg/kg, iv 1.25 mg/kg, 2 hr, Rat 1; read-out: 153 liver concentration

{"columns": ["compound", "concentration at 2 h / ng/g"],
 "data": [
  ["CCCOC(=O)C1C2CCC(O2)C1C(=O)N1CCN(C)CC1 (stereo not shown)", 42]
]}

---

- run.description: Pharmacokinetic study of 157 (and metabolite endothal) in SD rats, iv and po; plasma, liver, brain
- Assay type: in vivo
- condition.parameters: female, Sprague-Dawley (SD), rat, in vivo, po, 1.5 mg/kg, PO 1.5 mg/kg, 0.5 hr, Rat 1

{"columns": ["compound", "unit.spec", "concentration at 0.5 h"],
 "data": [
  ["CCCCCCCOC(=O)C1C2CCC(O2)C1C(=O)N1CCN(C)CC1 (stereo not shown)", "ng/mL", 5.92]
]}

---

- run.description: in vivo
- Design: species or system SD rats
- condition.parameters: male, Sprague-Dawley, rat, po, 1.4 mg/kg
- Experimental: 113 was dissolved in 4% NaHCO3 in saline for IV administration. The detailed procedure of dosing solution preparation was presented in Appendix I. 15 animals were placed on the study. The animals in IV arm were free access to food and water. For PO dose group, the animals were fasted overnight prior to dosing and the food was resumed 4 hours postdose. […] The PK parameters were determined by non-compartmental model of non-compartmental analysis tool, Pharsight Phoenix WinNonlin® 6.2 software. […]

{"columns": ["compound", "Tmax"],
 "data": [
  ["CN1CCN(C(=O)C2C(C(=O)OCC(Cl)(Cl)Cl)[C@H]3CC[C@@H]2O3)CC1 (stereo partly shown) [Compound 113]", "15 min"]
]}

---

- run.description: in vivo
- condition.parameters: female, Sprague-Dawley (SD), rat, in vivo, iv, 0.5 mg/kg, 100 liver concentration

{"columns": ["compound", "unit.spec", "concentration at 0.25 h"],
 "data": [
  ["CN1CCN(C(=O)C2C3CCC(O3)C2C(=O)O)CC1 (stereo not shown)", "ng/g", 520]
]}
